- Assay Target: full length (FL) LXRβ (Homo sapiens, UniProt P55055, DUP175-175)
- Construct: the full length (FL) proteins of LXRα (amino acids 1-447); NP005684; NP009052; expressed in transfected cells; host or cells: HEK293
- Sequence (P55055 with tags, fused parts or gaps DUP175-175): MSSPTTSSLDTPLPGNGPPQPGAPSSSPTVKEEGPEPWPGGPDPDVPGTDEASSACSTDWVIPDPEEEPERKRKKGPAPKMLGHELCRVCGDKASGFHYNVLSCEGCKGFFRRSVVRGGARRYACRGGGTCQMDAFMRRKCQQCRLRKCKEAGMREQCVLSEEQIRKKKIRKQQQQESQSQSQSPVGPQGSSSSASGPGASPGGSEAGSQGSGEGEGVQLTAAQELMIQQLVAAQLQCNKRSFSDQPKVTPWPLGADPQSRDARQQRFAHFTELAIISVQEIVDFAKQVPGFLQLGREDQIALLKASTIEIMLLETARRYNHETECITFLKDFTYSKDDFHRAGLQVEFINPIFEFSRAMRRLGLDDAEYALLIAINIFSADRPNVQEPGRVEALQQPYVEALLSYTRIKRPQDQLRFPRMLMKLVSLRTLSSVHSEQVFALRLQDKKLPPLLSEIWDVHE
- Test Protocol: LXR Gal4 reporter transient transfection assay (FL-M2H Gal4β)
- Format: cell-based
- Cond: HEK293 cells, full length LXRβ; read-out: FL-M2H Gal4β (EC50 range)
Catalogue of EC50 readings, one per entry.

{"columns": ["Molecule", "Assay Target", "EC50"],
 "data": [
  ["Cc1ccc(S(=O)(=O)n2c(-c3cccc(-c4cc(C)c(C(=O)O)cc4Cl)c3)c(-c3ccsc3C#N)c3cc(F)ccc32)cc1 [Example 12]", "full length (FL) LXRβ (Homo sapiens, UniProt P55055, DUP175-175)", "< 100 nM"],
  ["Cc1ccc(S(=O)(=O)n2c(-c3cccc(-c4cnc(C(=O)O)cc4C)c3)c(-c3ccsc3C#N)c3cc(F)ccc32)cc1 [Example 36]", "full length (FL) LXRβ (Homo sapiens, UniProt P55055, DUP175-175)", "100 to 1000 nM"],
  ["Cc1ccc(S(=O)(=O)n2c(-c3cccc(-c4ccc(C(=O)O)cc4Cl)c3)c(-c3ccccc3C#N)c3cc(F)ccc32)cc1 [Example 11]", "full length (FL) LXRβ (Homo sapiens, UniProt P55055, DUP175-175)", "< 100 nM"],
  ["N#Cc1sccc1-c1c(-c2cccc(N3CC(C(=O)O)C3)c2)n(S(=O)(=O)c2ccc(C(F)(F)F)cc2)c2ccc(F)cc12 [3/34]", "full length (FL) LXRβ (Homo sapiens, UniProt P55055, DUP175-175)", "< 100 nM"],
  ["Cc1ccc(S(=O)(=O)n2c(-c3cccc(-c4cccc(S(C)(=O)=Nc5nnn[nH]5)c4)c3)c(-c3ccsc3C#N)c3cc(F)ccc32)cc1 (centres unmarked) [37/1]", "full length (FL) LXRβ (Homo sapiens, UniProt P55055, DUP175-175)", "100 to 1000 nM"],
  ["N#Cc1ccncc1-c1c(-c2cccc(-c3cc(F)c(C(=O)O)cc3Cl)c2)n(S(=O)(=O)c2ccc(C(F)F)cc2)c2ccc(F)cc12 [11/10]", "full length (FL) LXRβ (Homo sapiens, UniProt P55055, DUP175-175)", "< 100 nM"],
  ["N#Cc1ccccc1-c1c(-c2cccc(-c3ccc(C(=O)O)cc3Cl)c2)n(S(=O)(=O)c2ccc(C(F)F)cc2)c2cccnc12 [8/7]", "full length (FL) LXRβ (Homo sapiens, UniProt P55055, DUP175-175)", "< 100 nM"],
  ["Cc1ccc(S(=O)(=O)n2c(-c3cccc(-c4ccc(C(=O)O)cc4)c3)c(-c3ccsc3C#N)c3cc(F)ccc32)cc1 [5/3]", "full length (FL) LXRβ (Homo sapiens, UniProt P55055, DUP175-175)", "< 100 nM"],
  ["CC(C)(O)c1ccc(S(=O)(=O)n2c(-c3cccc(-c4ccc(C(=O)O)cc4Cl)c3)c(-c3ccccc3C#N)c3cc(F)ccc32)cc1 [30/16]", "full length (FL) LXRβ (Homo sapiens, UniProt P55055, DUP175-175)", "100 to 1000 nM"],
  ["Cc1ccc(S(=O)(=O)n2c(-c3cccc(-c4cncc(S(=O)(=O)CC(=O)O)c4)c3)c(-c3ccsc3C#N)c3ccccc32)cc1 [Example 5]", "full length (FL) LXRβ (Homo sapiens, UniProt P55055, DUP175-175)", "1000 to 10000 nM"],
  ["O=C(O)C1CC1c1cccc(-c2c(-c3c(Cl)cccc3Cl)c3cc(F)ccc3n2S(=O)(=O)c2ccc(C(F)F)cc2)c1 (centres unmarked) [11/69]", "full length (FL) LXRβ (Homo sapiens, UniProt P55055, DUP175-175)", "< 100 nM"],
  ["N#Cc1ccccc1-c1c(-c2cccc(-c3ccc(C(=O)O)cc3Cl)c2)n(S(=O)(=O)c2ccc(C(F)F)cc2)c2cnccc12 [11/49]", "full length (FL) LXRβ (Homo sapiens, UniProt P55055, DUP175-175)", "< 100 nM"],
  ["Cc1ccc(S(=O)(=O)n2c(-c3cccc(-c4ccc(C(=O)NO)cc4)c3)c(-c3ccsc3C#N)c3cc(F)ccc32)cc1 [Example 6]", "full length (FL) LXRβ (Homo sapiens, UniProt P55055, DUP175-175)", "< 100 nM"],
  ["N#Cc1cccc(C#N)c1-c1c(-c2cccc(-c3ccc(C(=O)O)cc3Cl)c2)n(S(=O)(=O)c2ccc(C(F)F)cc2)c2cc(F)c(O)cc12 [Example 44]", "full length (FL) LXRβ (Homo sapiens, UniProt P55055, DUP175-175)", "< 100 nM"],
  ["[2H]c1c([2H])c(S(=O)(=O)n2c(-c3cccc(-c4ccc(C(=O)O)cc4Cl)c3)c(-c3ccsc3C#N)c3cc(F)ccc32)c([2H])c([2H])c1C([2H])([2H])[2H] [3/22]", "full length (FL) LXRβ (Homo sapiens, UniProt P55055, DUP175-175)", "< 100 nM"],
  ["N#Cc1sccc1-c1c(-c2cccc(-c3cc(F)c(C(=O)O)cc3Cl)c2)n(S(=O)(=O)c2ccc(C(F)F)cc2)c2ccc(F)cc12 [11/8]", "full length (FL) LXRβ (Homo sapiens, UniProt P55055, DUP175-175)", "< 100 nM"],
  ["Cc1ccc(S(=O)(=O)n2c(-c3cccc(C45CC(C(=O)O)(C4)C5)c3)c(-c3ccsc3C#N)c3ccccc32)cc1 [5/2]", "full length (FL) LXRβ (Homo sapiens, UniProt P55055, DUP175-175)", "100 to 1000 nM"],
  ["N#Cc1nccnc1-c1c(-c2cccc(-c3cc(F)c(C(=O)O)cc3Cl)c2)n(S(=O)(=O)c2ccc(C(F)F)cc2)c2ccc(F)cc12 [11/11]", "full length (FL) LXRβ (Homo sapiens, UniProt P55055, DUP175-175)", "< 100 nM"],
  ["Cc1ccc(S(=O)(=O)n2c(-c3cccc(N4CC(C(=O)O)C4)c3)c(-c3ccoc3C#N)c3cc(F)ccc32)cc1 [3/26]", "full length (FL) LXRβ (Homo sapiens, UniProt P55055, DUP175-175)", "< 100 nM"],
  ["N#Cc1ccccc1-c1c(-c2cccc(-c3ccc(C(=O)O)cc3F)c2)n(S(=O)(=O)c2ccc(C(F)F)cc2)c2ccc(F)cc12 [11/31]", "full length (FL) LXRβ (Homo sapiens, UniProt P55055, DUP175-175)", "< 100 nM"],
  ["Cn1cccc(-c2c(-c3cccc(-c4ccc(C(=O)O)cc4Cl)c3)n(S(=O)(=O)c3ccc(C(F)F)cc3)c3ccc(F)cc23)c1=O [11/47]", "full length (FL) LXRβ (Homo sapiens, UniProt P55055, DUP175-175)", "100 to 1000 nM"],
  ["N#Cc1cccc(C#N)c1-c1c(-c2cccc(-c3cc(F)c(C(=O)O)cc3Cl)c2)n(S(=O)(=O)c2ccc(C(F)F)cc2)c2ccc(F)cc12 [11/65]", "full length (FL) LXRβ (Homo sapiens, UniProt P55055, DUP175-175)", "< 100 nM"],
  ["O=C(O)c1ccc(-c2cccc(-c3c(-c4cccc5c4OCO5)c4cc(F)ccc4n3S(=O)(=O)c3ccc(C(F)F)cc3)c2)c(Cl)c1 [11/44]", "full length (FL) LXRβ (Homo sapiens, UniProt P55055, DUP175-175)", "< 100 nM"]
]}

---

Reported pEC50 values for the following molecules.
- Assay Target: full length (FL) LXRβ (Homo sapiens, UniProt P55055, DUP175-175)
- Construct: the full length (FL) proteins of LXRα (amino acids 1-447); NP005684; NP009052; expressed in transfected cells; host or cells: HEK293
- Test Protocol: LXR Gal4 reporter transient transfection assay (FL-M2H Gal4β)
- Format: cell-based
- Cond: HEK293 cells, full length LXRβ; read-out: FL-M2H Gal4β (EC50 range)
pEC50: −log10 of the molar value.

{"columns": ["Molecule", "pEC50"],
 "data": [
  ["Cc1cccc(C(F)F)c1-c1c(-c2cccc(-c3ccc(C(=O)O)cc3Cl)c2)n(S(=O)(=O)c2ccc(C(F)F)cc2)c2ccc(F)cc12 [11/38]", "> 7.00"],
  ["N#Cc1cccc(C#N)c1-c1c(-c2cccc(-c3ccc(C(=O)O)cc3Cl)c2)n(S(=O)(=O)c2ccc(Cl)cc2)c2ccc(F)cc12 [11/55]", "> 7.00"],
  ["Cc1ccc(S(=O)(=O)n2c(-c3cccc(-c4ccc(-c5nnn[nH]5)cc4Cl)c3)c(-c3ccsc3C#N)c3cc(F)ccc32)cc1 [Example 37]", "> 7.00"],
  ["N#Cc1cccc(C#N)c1-c1c(-c2cccc(-c3ccc(C(=O)O)cc3Cl)c2)n(S(=O)(=O)c2ccc(C(F)F)cc2)c2cnc(O)cc12 [3/70]", "6.00 to 7.00"],
  ["COCc1sccc1-c1c(-c2cccc(N3CC(C(=O)O)C3)c2)n(S(=O)(=O)c2ccc(C)cc2)c2ccc(F)cc12 [3/6]", "6.00 to 7.00"],
  ["N#Cc1cccc(C#N)c1-c1c(-c2cccc(C3CC3C(=O)O)c2)n(S(=O)(=O)c2ccc(C(F)F)cc2)c2ccc(F)cc12 (centres unmarked) [3/68]", "> 7.00"],
  ["O=C(O)c1ccc(-c2cccc(-c3c(-c4c(C(F)F)cccc4C(F)F)c4cc(F)ccc4n3S(=O)(=O)c3ccc(C(F)F)cc3)c2)c(Cl)c1 [11/15]", "> 7.00"],
  ["Cc1ccc(S(=O)(=O)n2c(-c3cccc(-c4ccc(C(=O)O)cc4Cl)c3)c(-c3cccc(C)c3C#N)c3cc(F)ccc32)cc1 [11/2]", "> 7.00"],
  ["Cc1ccc(S(=O)(=O)n2c(-c3cccc(-c4ccc(C(=O)O)c(F)c4Cl)c3)c(-c3ccsc3C#N)c3cc(F)ccc32)cc1 [12/3]", "> 7.00"],
  ["N#Cc1cccc(C#N)c1-c1c(-c2cccc(-c3ccc(C(=O)O)cc3Cl)c2)n(S(=O)(=O)C2CCC(F)(F)CC2)c2ccc(F)cc12 [11/63]", "> 7.00"],
  ["Cc1ccc(S(=O)(=O)n2c(-c3cc(N4CC(C(=O)O)C4)ccc3Cl)c(-c3ccsc3C#N)c3cc(F)ccc32)cc1 [3/40]", "> 7.00"],
  ["N#Cc1cccc(C#N)c1-c1c(-c2cccc(-c3c(F)cc(C(=O)O)cc3F)c2)n(S(=O)(=O)c2ccc(C(F)F)cc2)c2ccc(F)cc12 [11/53]", "> 7.00"],
  ["N#Cc1sccc1-c1c(-c2cccc(-c3ccc(C(=O)O)cc3Cl)c2)n(S(=O)(=O)c2ccc(F)cc2)c2ccc(F)cc12 [11/18]", "> 7.00"],
  ["N#Cc1cccnc1-c1c(-c2cccc(-c3ccc(C(=O)O)cc3Cl)c2)n(S(=O)(=O)c2ccc(C(F)F)cc2)c2ccc(F)cc12 [11/26]", "> 7.00"],
  ["O=C(O)c1ccc(-c2cccc(-c3c(-c4c(Cl)cccc4Cl)c4cc(F)ccc4n3S(=O)(=O)c3ccc(C(F)F)cc3)c2)c(Cl)c1 [11/13]", "> 7.00"],
  ["N#Cc1cccc(C#N)c1-c1c(-c2cccc(N3CC(C(=O)O)C3)c2)n(S(=O)(=O)c2ccc(C(F)F)cc2)c2ccc(F)cc12 [3/67]", "6.00 to 7.00"],
  ["Cc1ccc(S(=O)(=O)n2c(-c3cccc(N4CCC(C)(C(=O)O)CC4)c3)c(-c3ccsc3C#N)c3cc(F)ccc32)cc1 [3/50]", "> 7.00"],
  ["O=C(O)c1ccc(-c2cccc(-c3c(-c4cccc5oncc45)c4cc(F)ccc4n3S(=O)(=O)c3ccc(C(F)F)cc3)c2)c(Cl)c1 [3/69]", "6.00 to 7.00"],
  ["N#Cc1cccc(C#N)c1-c1c(-c2cccc(Br)c2)n(S(=O)(=O)c2ccc(C(F)F)cc2)c2ccc(F)cc12 [1/139]", "> 7.00"],
  ["CCc1ccc(S(=O)(=O)n2c(-c3cccc(N4CC(C(=O)O)C4)c3)c(-c3ccsc3C#N)c3cc(F)ccc32)cc1 [3/10]", "> 7.00"],
  ["N#Cc1sccc1-c1c(-c2cccc(N3CC(C(=O)O)C3)c2)n(S(=O)(=O)c2ccc3ccccc3c2)c2ccc(F)cc12 [3/13]", "> 7.00"],
  ["Cc1ccc(S(=O)(=O)n2c(-c3cccc(-c4ccc(CN(C)C)cc4Cl)c3)c(-c3ccsc3C#N)c3cc(F)ccc32)cc1 [Example 2]", "> 7.00"],
  ["Cc1ccc(S(=O)(=O)n2c(-c3cccc(N4CC[C@@H](C(=O)O)C[C@H]4C)c3)c(-c3ccsc3C#N)c3cc(F)ccc32)cc1 [5/9]", "> 7.00"],
  ["N#Cc1cccc(C#N)c1-c1c(-c2cccc([C@H]3CC[C@@H](C(=O)O)CC3)c2)n(S(=O)(=O)c2ccc(C(F)F)cc2)c2ccc(F)cc12 [11/61]", "> 7.00"],
  ["COc1sccc1-c1c(-c2cccc(N3CC(C(=O)O)C3)c2)n(S(=O)(=O)c2ccc(C)cc2)c2ccc(F)cc12 [3/3]", "6.00 to 7.00"],
  ["Cc1ccc(S(=O)(=O)n2c(-c3cccc(-c4ccc(C(=O)O)c(C)c4Cl)c3)c(-c3ccsc3C#N)c3cc(F)ccc32)cc1 [12/1]", "> 7.00"]
]}
